ASSAY_SUMMARY: qHTS for Inhibitors of human tyrosyl-DNA phosphodiesterase 1 (TDP1): qHTS in cells in absence of CPT; note: nearly all actives have a fitted effect of over 55% in size
CONDITION_LABEL: DT40 Tdp1-/- hTDP1 cells, no CPT, ATP luminescence, 48 h
Protocol: Human tyrosyl-DNA phosphodiesterase 1 (TDP1) is a novel repair gene, and we propose to use it as a new target for anticancer drug development. […] For the primary screen, Tdp1-/-;hTDP1 cells will be exposed to small molecules in the presence or absence of CPT, and their growth kinetics will be evaluated after 48 hours by measuring ATP activity. […] The hit compounds will then be evaluated in the presence or absence of CPT using Tdp1-/- cells. […]
Out of some 420,000 compounds screened, about 64,000 (15%) were called active. Roughly 27% stayed inconclusive and do not appear here. Calls come from the whole dose curve; as a rule, active = well fitted inhibition curve with a large enough effect; inconclusive = small, poorly fitted or top-dose-only effect; inactive = flat fitted curve, though single readings scatter. A selection follows.
Choose one outcome from this list and give only that: yes for active, no for inactive

- MOLECULE: "CC(C)(C)Cc1nnc(NC(=O)c2cc(-c3ccccc3)nc3ccccc23)s1"
  GROUP: "no"
- MOLECULE: "O=C(NNC(=S)NCCCN1CCOCC1)c1ccncc1"
  GROUP: "no"
- MOLECULE: "COCCn1cnnc1SCC(=O)Nc1cccc(S(=O)(=O)N2CCCCC2)c1"
  GROUP: "no"

With those in mind, consider the next molecule.
Given Cc1cc(NS(=O)(=O)c2ccc(NC(=O)c3ccccc3C)cc2)nc(C)n1 , state the outcome it received in this test. no
